# target system: Cytochrome P450 3A4 (Homo sapiens) (UniProt P08684)
# Sequence (P08684 whole entry, looked up): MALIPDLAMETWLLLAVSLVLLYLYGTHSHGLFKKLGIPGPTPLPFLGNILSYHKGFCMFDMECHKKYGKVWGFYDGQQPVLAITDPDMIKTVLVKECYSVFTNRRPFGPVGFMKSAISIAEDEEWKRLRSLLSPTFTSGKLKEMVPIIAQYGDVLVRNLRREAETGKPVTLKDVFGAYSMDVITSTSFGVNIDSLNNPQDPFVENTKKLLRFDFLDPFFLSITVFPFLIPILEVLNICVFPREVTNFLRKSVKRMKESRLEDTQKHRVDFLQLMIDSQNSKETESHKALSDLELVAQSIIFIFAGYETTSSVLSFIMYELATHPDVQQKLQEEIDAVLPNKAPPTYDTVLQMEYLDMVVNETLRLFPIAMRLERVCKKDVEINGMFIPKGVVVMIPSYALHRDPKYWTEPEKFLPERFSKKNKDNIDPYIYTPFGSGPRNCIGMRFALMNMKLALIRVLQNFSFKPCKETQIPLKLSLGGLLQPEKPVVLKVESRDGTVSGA
# method summary: qHTS Assay for Inhibitors and Substrates of Cytochrome P450 3A4 (AID 884); note: nearly all actives have a fitted effect of over 50% in size
# condition info: recombinant CYP3A4, Luciferin-PPXE luminescence; series mostly up to 57.1 µM
Inconclusive results are not listed. Active and inactive are the calls of the source. Calls come from the whole dose curve; as a rule, active = well fitted inhibition curve with a large enough effect; inconclusive = small, poorly fitted or top-dose-only effect; inactive = no such curve, though single readings can be large or run the other way.
Response enum: TRUE for active, FALSE for inactive

CCC(N)C(O)c1ccc(O)c(O)c1 (stereo unspecified)
FALSE
COC1C(O)C(OC2CC[C@]3(C=O)C4C(OC(C)=O)C[C@@]5(C)C(C6=CC(=O)OC6)CC[C@]5(O)C4CC[C@]3(O)C2)OC(C)C1OC(C)=O (stereo partly specified)
FALSE
COc1cc2c(cc1OC)[C@@H]1C(=O)c3ccc(O)c(CC=C(C)C)c3OC1CO2 (stereo partly specified)
FALSE
O=NN(c1ccccc1)c1ccccc1
FALSE
N#Cc1c(Cl)cccc1Cl
FALSE

## Task State the result this test recorded for CC1C(=O)OC2C(O)C34C5OC(=O)[C@@]3(OC3OC(=O)[C@H](O)[C@]34C(C(C)(C)C)C5O)[C@]12O (stereo partly specified) .
## Result FALSE

## Task Field entry: CNC(=O)O/N=C(/C)SC
## Result FALSE

## Task For CC(C)(OO)c1ccccc1 then?
## Result FALSE

## Task Likewise for N#CC(O[C@@H]1OC(COC2OC(CO)C(O)C(O)[C@@H]2O)C(O)C(O)C1O)c1ccccc1 (stereo partly specified) ?
## Result FALSE

## Task Next molecule up: C=C1C/C(=C/C)C(=O)O[C@@H]2CCN3CC=C(COC(=O)[C@]1(C)O)[C@@H]23
## Result TRUE

## Task Entry to check: CC(N)[C@H](O)c1ccccc1 (stereo partly specified)
## Result FALSE

* * *

# method summary: Validation screen for small molecules that induce DNA re-replication in MCF 10A normal breast cells (AID 463097); note: nearly all actives have a fitted effect of over 60% in size
# condition info: MCF 10A cells, DNA re-replication phenotype imaging; series mostly up to 46.1 µM
Inconclusive results are not listed. The source made the active and inactive calls. Calls follow the shape of the dose curve; as a rule, active = well fitted activation curve with a large enough effect; inconclusive = small, poorly fitted or top-dose-only effect; inactive = flat fitted curve, though single readings scatter.
Result category, one only: yes (1) for active, no (0) for inactive

The following compounds have reported results that may help.
CCC(CO)NC(=O)[C@@H]1C=C2c3cccc4[nH]cc(c34)C[C@H]2N(C)C1 (some centres undefined)
no (0)
Nc1ncnc2c1ncn2[C@@H]1O[C@H](COP(=O)(O)CP(=O)(O)OP(=O)(O)O)[C@H](O)[C@H]1O
no (0)
C[C@]12CC[C@@H](O)CC1CCC1C2CC[C@]2(C)C(=O)CC[C@@H]12 (some centres undefined)
no (0)
CC12CCC3C(CCC4=C(O)C(=O)CCC43C)C1CCC2=O (centres undefined)
no (0)
COc1ccc2c(c1O)-c1cccc3c1C(C2)N(C)CC3 (centres undefined)
no (0)
C[C@]12CC[C@H]3[C@@H](CCC4C[C@H](O)CC[C@@]43C)[C@@H]1CC[C@@H]2O (some centres undefined)
no (0)
C/C=C(/C)C(=O)O[C@H]1C(C)=C2C([C@@H]1OC(=O)CCCCCCC)[C@@](C)(OC(C)=O)C[C@@H](OC(=O)CCC)[C@@]1(O)[C@H]2OC(=O)[C@@]1(C)O (some centres undefined)
yes (1)
CCCN1CCCC(c2cccc(O)c2)C1 (centres undefined)
no (0)
NC(Cn1ccc(=O)[nH]c1=O)C(=O)O (centres undefined)
no (0)
CCCN(CCC)[C@@H]1CCc2c(F)ccc(O)c2C1
no (0)

## Task Per the assay record, what outcome was assigned to Oc1ccc2c3c1O[C@H]1[C@@H](O)CC[C@@]4(O)C(C2)N(CC2CCC2)CCC314 (some centres undefined) ?
## Result no (0)

## Task Another compound: CC(C)(O)C1C2OC(=O)C1[C@]1(O)C[C@H]3O[C@]34C(=O)O[C@H]2[C@]14C (some centres undefined) (tested in a mixture with another compound)
## Result no (0)

## Task Try this compound next: CN1C[C@@H](CS(=O)(=O)N(C)C)C[C@@H]2c3cccc4c3c(cn4C)C[C@H]21
## Result no (0)

## Task Next record, please: CC[C@@H](CO)NC(=O)[C@H]1C=C2c3cccc4c3c(cn4C)C[C@H]2N(C)C1
## Result no (0)

## Task Moving on to the next compound: CCN(CC)C(=O)N[C@@H]1C[C@@H]2c3cccc4[nH]cc(c34)C[C@H]2N(C)C1
## Result no (0)

## Task Try COc1ccc2c3c1O[C@H]1C(=O)CC[C@@]4(O)C(C2)N(CC2CC2)CCC314 (some centres undefined) next.
## Result no (0)

## Task # iterate: NCC#Cc1ccccc1
## Result no (0)

## Task How about NNCc1cccc(O)c1 ?
## Result no (0)

## Task Next entry: CCN1C[C@]2(C)CC[C@H](O)[C@@]34[C@@H]5C[C@@H]6[C@@H](OC)C[C@@](O)(C5[C@H]6O)[C@@H](C[C@@H]23)[C@@H]14
## Result no (0)
